biological target: HIV-1 Env of isolate 92UG024 (subtype D) (HIV-1); experiment: cell-based or functional assay
Endpoint Label: IC50 (neutralization)

Ask: Please list IC50 (neutralization) recorded for the binder PGT-125 (antibody, V domains shown) VH: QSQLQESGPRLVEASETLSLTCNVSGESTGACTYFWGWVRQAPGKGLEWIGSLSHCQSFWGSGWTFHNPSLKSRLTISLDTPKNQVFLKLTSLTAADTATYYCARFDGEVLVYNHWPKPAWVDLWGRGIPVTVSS VL: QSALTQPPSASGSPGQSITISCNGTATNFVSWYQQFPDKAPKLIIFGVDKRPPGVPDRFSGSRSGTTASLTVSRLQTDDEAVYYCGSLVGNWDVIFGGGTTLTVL
Result: > 50 µg/mL

Ask: Give the measured IC50 (neutralization) for PGT-128 (antibody, V domains shown) VH: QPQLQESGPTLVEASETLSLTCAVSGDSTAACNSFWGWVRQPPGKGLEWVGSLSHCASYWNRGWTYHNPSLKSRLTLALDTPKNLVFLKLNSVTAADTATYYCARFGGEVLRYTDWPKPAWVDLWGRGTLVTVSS VL: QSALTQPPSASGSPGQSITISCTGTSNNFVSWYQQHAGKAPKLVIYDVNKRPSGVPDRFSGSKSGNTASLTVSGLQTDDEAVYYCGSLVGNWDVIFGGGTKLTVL
Result: > 50 µg/mL

Ask: Specify measured IC50 (neutralization) for PGT-137 (antibody, V domains shown) VH: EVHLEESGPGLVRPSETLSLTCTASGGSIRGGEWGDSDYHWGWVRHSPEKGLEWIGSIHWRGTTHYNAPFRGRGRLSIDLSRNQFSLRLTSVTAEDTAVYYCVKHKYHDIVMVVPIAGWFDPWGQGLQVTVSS VL: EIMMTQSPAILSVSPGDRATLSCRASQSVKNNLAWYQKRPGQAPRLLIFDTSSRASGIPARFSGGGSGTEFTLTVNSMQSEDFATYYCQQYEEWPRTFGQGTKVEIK .
Result: 0.106 µg/mL

Ask: Look up IC50 (neutralization) of PGT-126 (antibody, V domains shown) VH: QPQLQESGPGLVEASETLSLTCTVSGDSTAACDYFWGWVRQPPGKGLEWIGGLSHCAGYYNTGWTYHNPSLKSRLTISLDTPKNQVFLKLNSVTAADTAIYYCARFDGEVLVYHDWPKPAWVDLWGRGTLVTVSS VL: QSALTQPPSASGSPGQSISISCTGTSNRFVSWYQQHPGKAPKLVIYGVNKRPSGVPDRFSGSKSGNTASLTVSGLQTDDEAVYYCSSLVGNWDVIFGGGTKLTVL and report it.
Result: > 50 µg/mL
